Molecular target: T1, Human CD27 ECD truncated (ECD 1-121, cleavage site, His6) (human)
T1 construct: also called human CD27 ECD with His Tag; CD27-His
T1 chain: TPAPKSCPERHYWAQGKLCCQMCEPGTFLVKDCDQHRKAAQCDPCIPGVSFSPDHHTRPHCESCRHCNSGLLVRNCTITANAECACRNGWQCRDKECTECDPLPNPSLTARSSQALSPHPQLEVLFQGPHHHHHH
Test: ProteOn SPR, purified mAb, CD27-His
Kd: recorded values
property-measured: Kd (nM)

binder	property-measured	meas-value
M160 (antibody, human IgG4, V domains shown, also called H196,L219) VH: QVQLVQSGAEVKKPGASVKVSCKASGYAFSSSWMNWVRQAPGQGLEWMGRIYSGDGDTNYNGKFKGRVTMTRDTSTSTVYMELSSLRSEDTAVYYCARSDYYGDYGFAYWGQGTLVTVSS VL: DIQMTQSPSSLSASVGDRVTITCKASQSVDYAGDSFMNWYQQKPGKAPKLLIYAASNLESGVPSRFSGSGSGTDFTLTISSLQPEDFATYYCQQSNEDPYTFGQGTKVEIK	Kd	0.108
M166 (antibody, human IgG4, V domains shown, also called H196,L217) VH: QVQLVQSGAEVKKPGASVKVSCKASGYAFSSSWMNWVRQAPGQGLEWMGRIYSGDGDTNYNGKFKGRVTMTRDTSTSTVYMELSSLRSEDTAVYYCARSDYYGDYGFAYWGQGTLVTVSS VL: DIQMTQSPSSLSASVGDRVTITCKASQSVDYAHESFMNWYQQKPGKAPKLLIYAASNLESGVPSRFSGSGSGTDFTLTISSLQPEDFATYYCQQSNEDPYTFGQGTKVEIK	Kd	0.127
M668 (antibody, V domains shown, isotype not restated (path 2); also called H255,L266) VH: QVQLVQSGAEVKKPGASVKVSCKASGYAFSSSWMNWVRQAPGQGLEWMGRIYSGDADTNYAQKFKGRVTMTRDTSTSTVYMELSSLRSEDTAVYYCARSDYYGDYGFAYWGQGTLVTVSS VL: DIQMTQSPSSLSASVGDRVTITCKASQSVDYAGESFMNWYQQKPGKAPKLLIYAASNLESGVPSRFSGSGSGTDFTLTISSLQPEDFATYYCQQSNEDPYTFGQGTKVEIK	Kd	0.06
M673 (antibody, V domains shown, isotype not restated (path 2); also called H256,L217) VH: QVQLVQSGAEVKKPGASVKVSCKASGYAFSSSWMNWVRQAPGQGLEWMGRIYSGDADTNYNQKFKGRVTMTRDTSTSTVYMELSSLRSEDTAVYYCARSDYYGDYGFAYWGQGTLVTVSS VL: DIQMTQSPSSLSASVGDRVTITCKASQSVDYAHESFMNWYQQKPGKAPKLLIYAASNLESGVPSRFSGSGSGTDFTLTISSLQPEDFATYYCQQSNEDPYTFGQGTKVEIK	Kd	0.1
M169 (antibody, V domains shown, isotype not restated (path 2 mAbs were IgG4 Ser to Pro, Ala/Ala / kappa); also called H221, L219; CM169) VH: EVQLVQSGAEVKKPGESLKISCKGSGYAFSSSWMNWVRQMPGKGLEWMGRIYSGDGDTNYNGKFKGQVTISADKSISTAYLQWSSLKASDTAMYYCARSDYYGDYGFAYWGQGTLVTVSS VL: DIQMTQSPSSLSASVGDRVTITCKASQSVDYAGDSFMNWYQQKPGKAPKLLIYAASNLESGVPSRFSGSGSGTDFTLTISSLQPEDFATYYCQQSNEDPYTFGQGTKVEIK	Kd	0.059
M670 (antibody, V domains shown, isotype not restated (path 2); also called H257,L266) VH: EVQLVQSGAEVKKPGESLKISCKGSGYAFSSSWMNWVRQMPGKGLEWMGRIYSGDADTNYAQKFKGQVTISADKSISTAYLQWSSLKASDTAMYYCARSDYYGDYGFAYWGQGTLVTVSS VL: DIQMTQSPSSLSASVGDRVTITCKASQSVDYAGESFMNWYQQKPGKAPKLLIYAASNLESGVPSRFSGSGSGTDFTLTISSLQPEDFATYYCQQSNEDPYTFGQGTKVEIK	Kd	0.065
M669 (antibody, V domains shown, isotype not restated (path 2); also called H256,L266) VH: QVQLVQSGAEVKKPGASVKVSCKASGYAFSSSWMNWVRQAPGQGLEWMGRIYSGDADTNYNQKFKGRVTMTRDTSTSTVYMELSSLRSEDTAVYYCARSDYYGDYGFAYWGQGTLVTVSS VL: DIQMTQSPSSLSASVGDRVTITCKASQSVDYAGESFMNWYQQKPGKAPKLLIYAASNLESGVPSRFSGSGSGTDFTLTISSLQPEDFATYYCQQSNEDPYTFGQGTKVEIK	Kd	0.058
M671 (antibody, V domains shown, isotype not restated (path 2); also called H258,L266) VH: EVQLVQSGAEVKKPGESLKISCKGSGYAFSSSWMNWVRQMPGKGLEWMGRIYSGDADTNYNQKFKGQVTISADKSISTAYLQWSSLKASDTAMYYCARSDYYGDYGFAYWGQGTLVTVSS VL: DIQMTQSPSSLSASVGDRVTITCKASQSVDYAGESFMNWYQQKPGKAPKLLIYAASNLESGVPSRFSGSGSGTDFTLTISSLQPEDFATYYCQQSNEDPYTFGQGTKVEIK	Kd	0.039
M672 (antibody, V domains shown, isotype not restated (path 2); also called H255,L217) VH: QVQLVQSGAEVKKPGASVKVSCKASGYAFSSSWMNWVRQAPGQGLEWMGRIYSGDADTNYAQKFKGRVTMTRDTSTSTVYMELSSLRSEDTAVYYCARSDYYGDYGFAYWGQGTLVTVSS VL: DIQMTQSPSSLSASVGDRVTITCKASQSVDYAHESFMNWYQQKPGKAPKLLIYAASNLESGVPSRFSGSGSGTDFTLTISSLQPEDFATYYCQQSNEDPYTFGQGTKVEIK	Kd	0.144
